Would you kindly list mortality at 200 ppm for each of these compounds?
Tested on: Sweetpotato Whitefly-Crawler (WF) (Bemisia tabaci) (BEMITA)
Method: Insecticidal test for Sweetpotato Whitefly-Crawler (WF) in foliar spray assay on cotton plants
Type: in vivo
Test parameters: 216 h, 200 ppm foliar spray on cotton plants, graded after 9 days, Abbott corrected % control, read-out: WF 200 ppm, % Control (or Mortality) rating

Use these answered entries as a reference point.
INSERT INTO results (smi, result) VALUES
  ('CCN(C(=O)CC/C(C)=N/OCCCCF)c1cn(-c2cccnc2)nc1Cl', '80 to 100%'),
  ('CCN(C(=O)CN(C)C(=O)c1ccccc1)c1cn(-c2cccnc2)nc1Cl', '0 to 80%'),
  ('CCN(C(=O)CC/C(C)=N/OCC(F)(F)F)c1cn(-c2cccnc2)nc1Cl', '80 to 100%');

# batch: return mortality at 200 ppm for each of the 2 compounds below
1. CCN(C(=O)C1CCN(C(C)=O)CC1)c1cn(-c2cccnc2)nc1Cl
2. CCN(C(=O)CCC(=O)NCc1ccc(F)cc1)c1cn(-c2cccnc2)nc1Cl

Solution:
["0 to 80%", "80 to 100%"]

====

Test system: Green Peach Aphid (GPA) (Myzus persicae) (MYZUPE)
Method: Bioassay for Green Peach Aphid (GPA), foliar spray on cabbage seedlings
Type: in vivo
Test parameters: 72 h, 200 ppm foliar spray on cabbage seedlings, graded after three days, Abbott corrected % control, read-out: GPA 200 ppm, % Control (or Mortality) rating
For each entry below, report its mortality at 200 ppm value.

A selection of reference data follows.
INSERT INTO results (compound, result) VALUES
  ('CCN(C(=O)CCC(=O)NCc1ccc(C)o1)c1cn(-c2cccnc2)nc1Cl', '0 to 80%'),
  ('CCN(C(=O)CCNC(=O)CC(F)(F)F)c1cn(-c2cccnc2)nc1Cl', '80 to 100%'),
  ('O=C1CCCN1CC(=O)N(CC1CC1)c1cn(-c2cccnc2)nc1Cl', '80 to 100%'),
  ('C=CCC(C)C(=O)N(CC)c1cn(-c2cccnc2)nc1Cl (stereo not drawn)', '80 to 100%'),
  ('CCN(C(=O)CCC(=O)O)c1cn(-c2cccnc2)nc1Cl', '< 0%'),
  ('CCN(C(=O)Cn1ccccc1=O)c1cn(-c2cccnc2)nc1Cl', '0 to 80%'),
  ('CCN(C(=O)CCN1CCCC1=O)c1cn(-c2cccnc2)nc1Cl', '80 to 100%'),
  ('CCN(C(=O)C1CCN(C(C)=O)C1)c1cn(-c2cccnc2)nc1Cl (stereo not drawn)', '80 to 100%');

Okay, next one:
Problem: Report mortality at 200 ppm, nothing else, for this compound: CCN(C(=O)CCNC(=O)CC(C)C(F)(F)F)c1cn(-c2cccnc2)nc1Cl (stereo not drawn)
Solution: 80 to 100%

====

Tested on: Sweetpotato Whitefly-Crawler (WF) (Bemisia tabaci) (BEMITA)
Method: Insecticidal test for Sweetpotato Whitefly-Crawler (WF) in foliar spray assay on cotton plants
Assay type: in vivo
Test parameters: 216 h, 200 ppm foliar spray on cotton plants, graded after 9 days, Abbott corrected % control, read-out: WF 200 ppm, % Control (or Mortality) rating
So I've got a bunch of compounds here, and I need their mortality at 200 ppm values.

Example entries and their recorded answers appear below.
INSERT INTO measurements (compound, result) VALUES
  ('CCN(C(=O)CCNC)c1cn(-c2cccnc2)nc1Cl [Compound C11]', '80 to 100%'),
  ('CCN(C(=O)CCC(=O)N(C)CC1CC1)c1cn(-c2cccnc2)nc1Cl [Compound F30]', '80 to 100%'),
  ('CCN(C(=O)C1CCN(C(=O)C(F)(F)F)C1)c1cn(-c2cccnc2)nc1Cl (centres unmarked) [FA9]', '< 0%'),
  ('CCN(C(=O)CCC(=O)N(C)CC(F)(F)F)c1cn(-c2cccnc2)nc1Cl [Compound F85]', '80 to 100%');

Return reported mortality at 200 ppm values for all items listed beneath this line.
1. CN(C(=O)CN1CCOC1=O)c1cn(-c2cccnc2)nc1Cl [Compound F111]
2. CCN(C(=O)CC/C(C)=N/OCC1CC1(F)F)c1cn(-c2cccnc2)nc1Cl (mixture of isomers) [Compound F72]
3. Cc1nn(-c2cccnc2)cc1N(C)C(=O)CCC(=O)N(C)C [Compound F62]

Solution:
1. 80 to 100%
2. 80 to 100%
3. 80 to 100%

====

Give mortality at 200 ppm for every item shown.
Tested on: Green Peach Aphid (GPA) (Myzus persicae) (MYZUPE)
Method: Bioassay for Green Peach Aphid (GPA), foliar spray on cabbage seedlings
Type: in vivo
Test parameters: 72 h, 200 ppm foliar spray on cabbage seedlings, graded after three days, Abbott corrected % control, read-out: GPA 200 ppm, % Control (or Mortality) rating

// below: answered molecules
INSERT INTO results (molecule, measured_attribute, result) VALUES
  ('CCN(C(=O)CCN(CC(F)F)C(=O)C1(C)CC1(F)F)c1cn(-c2cccnc2)nc1Cl (centres unmarked) [Compound F35]', 'mortality at 200 ppm', '80 to 100%'),
  ('CCN(C(=O)CC/C(C)=N/OCC(F)(F)F)c1cn(-c2cccnc2)nc1Cl [Compound F51]', 'mortality at 200 ppm', '80 to 100%'),
  ('CCN(C(=O)CC1CCN(CCC2CC2(F)F)C1=O)c1cn(-c2cccnc2)nc1Cl (centres unmarked) [FA64]', 'mortality at 200 ppm', '80 to 100%'),
  ('CCN(C(=O)CC/C(C)=N\OCCC1CC1(F)F)c1cn(-c2cccnc2)nc1Cl (centres unmarked) [FA49]', 'mortality at 200 ppm', '0 to 80%'),
  ('CCN(C(=O)C1CCCN(C(C)=O)C1)c1cn(-c2cccnc2)nc1Cl (centres unmarked) [FA45]', 'mortality at 200 ppm', '80 to 100%');

Record mortality at 200 ppm per entry; entries follow.
1. CCN(C(=O)CCN(C)C(=O)N(C)C)c1cn(-c2cccnc2)nc1Cl [Compound F121]
2. CCN(C(=O)CNC(=O)OC(C)(C)C)c1cn(-c2cccnc2)nc1Cl [Compound F2]
3. CCN(C(=O)CCC1CN(C)C1=O)c1cn(-c2cccnc2)nc1Cl (centres unmarked) [Compound F119]
4. CCN(C(=O)CNC(=O)/C=C/C(F)(F)F)c1cn(-c2cccnc2)nc1Cl [Compound F99]

Solution:
80 to 100%
80 to 100%
80 to 100%
0 to 80%

====

Assignment: determine reported mortality at 200 ppm for the given compounds.
System: Green Peach Aphid (GPA) (Myzus persicae) (MYZUPE)
Method: Bioassay for Green Peach Aphid (GPA), foliar spray on cabbage seedlings
Format: in vivo
Test parameters: 72 h, 200 ppm foliar spray on cabbage seedlings, graded after three days, Abbott corrected % control, read-out: GPA 200 ppm, % Control (or Mortality) rating

Take a look at these entries with their results.
INSERT INTO assay_data (compound, result) VALUES
  ('CCN(C(=O)CCN(C)C(=O)CCC(F)(F)F)c1cn(-c2cccnc2)nc1Cl', '80 to 100%'),
  ('CCN(C(=O)C1CCN(C(C)=O)CC1)c1cn(-c2cccnc2)nc1Cl', '80 to 100%'),
  ('CN(C(=O)CN1CCOC1=O)c1cn(-c2cccnc2)nc1Cl', '80 to 100%'),
  ('CCN(C(=O)C1CCCN(C(=O)C(C)C)C1)c1cn(-c2cccnc2)nc1Cl (stereo not drawn)', '80 to 100%'),
  ('CCN(C(=O)CC/C(C)=N/OCCCCF)c1cn(-c2cccnc2)nc1Cl', '80 to 100%');

Record mortality at 200 ppm for all entries; do not skip any.
1. CCN(C(=O)CCC(=O)CCC(F)(F)F)c1cn(-c2cccnc2)nc1Cl
2. CCN1CC(CCC(=O)N(CC)c2cn(-c3cccnc3)nc2Cl)C1=O (stereo not drawn)
3. CCN(C(=O)CC/C(C)=N/OCCCCC(F)(F)F)c1cn(-c2cccnc2)nc1Cl
4. CCN(C(=O)CCCC1CN(C)C1=O)c1cn(-c2cccnc2)nc1Cl (stereo not drawn)
5. CCN(C(=O)CCCC1CNC1=O)c1cn(-c2cccnc2)nc1Cl (stereo not drawn)
6. CCN(C(=O)C(C)N(C)C(=O)N(C)C)c1cn(-c2cccnc2)nc1Cl (stereo not drawn)
7. CCN(C(=O)CCNC(=O)C1CCN(C(C)=O)CC1)c1cn(-c2cccnc2)nc1Cl

Solution:
1. 0 to 80%
2. 80 to 100%
3. 0 to 80%
4. 80 to 100%
5. 80 to 100%
6. 80 to 100%
7. 0 to 80%

Consider the following items and state reported mortality at 200 ppm for each.
1. CCN(C(=O)C1CCN(C(=O)CC(F)(F)F)C1)c1cn(-c2cccnc2)nc1Cl (stereo not drawn)
2. CCN(C(=O)CCC(=O)NCc1cccc(Cl)c1)c1cn(-c2cccnc2)nc1Cl
3. CCN(C(=O)CCC1CCNC1=O)c1cn(-c2cccnc2)nc1Cl (stereo not drawn)
4. CCN(C(=O)CC/C(C)=N/OCc1ccc(OC(F)(F)F)cc1)c1cn(-c2cccnc2)nc1Cl
5. O=C(CCC(=O)N(CC1CC1)c1cn(-c2cccnc2)nc1Cl)N1CCCCCC1
6. CCN(C(=O)CC/C(C)=N/OCc1ccc(C(F)(F)F)nc1)c1cn(-c2cccnc2)nc1Cl

Solution:
1. 80 to 100%
2. 0 to 80%
3. 80 to 100%
4. 0 to 80%
5. 0 to 80%
6. 0 to 80%

These entries and their values trace back to patent US9523100B2.
